Target: Torsin-1A-interacting protein 2 (Homo sapiens) (UniProt Q8NFQ8)
Sequence (Q8NFQ8 whole entry, looked up): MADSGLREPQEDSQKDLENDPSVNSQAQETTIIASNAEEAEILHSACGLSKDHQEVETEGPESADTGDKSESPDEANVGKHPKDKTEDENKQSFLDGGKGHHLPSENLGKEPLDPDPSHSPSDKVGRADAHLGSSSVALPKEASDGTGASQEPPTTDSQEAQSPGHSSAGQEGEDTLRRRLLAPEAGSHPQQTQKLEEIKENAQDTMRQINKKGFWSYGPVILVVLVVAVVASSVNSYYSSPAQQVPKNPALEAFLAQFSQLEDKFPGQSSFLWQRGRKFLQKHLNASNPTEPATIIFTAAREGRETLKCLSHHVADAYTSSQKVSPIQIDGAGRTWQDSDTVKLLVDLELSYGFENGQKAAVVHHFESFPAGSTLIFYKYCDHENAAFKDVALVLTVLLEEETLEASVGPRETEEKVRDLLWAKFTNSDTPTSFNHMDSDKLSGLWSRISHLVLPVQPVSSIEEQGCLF
Assay: LULL1 binders on small-molecule microarray, primary screen, cell lysate, human LULL1 lysate, 635/667 nm fluorescence (AID 1092);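 note: probe is lysate of COS7 cells overexpressing human LULL1; score merges per-feature 667 nm fluorescence with signal-to-noise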
Conditions: hLULL1 lysate binding, 635 nm fluorescence, higher = more signal
// reported composite z-score for each item listed

# count of solved cases: 3
compound="COC(=O)C1=CC(c2ccc(CO)cc2)=CC(c2cccs2)N(Cc2cccc(OC(F)(F)F)c2)C=C1C(=O)OC (centres undefined)" experimental_result=3.31
compound=O=[N+]([O-])c1ccc(C[n+]2ccc3ccc(O)cc3c2)o1 experimental_result=0.803
compound=C=CCOC(=O)[C@@H]1[C@H]2C(=O)O[C@H](c3ccccc3)[C@H](c3ccccc3)N2[C@H](c2ccc(OCCOC(=O)[C@H]3C[C@H]4C(=O)N[C@@H](CCCCNC(C)=O)C(=O)N4[C@H]3c3ccc(O)cc3)cc2)[C@@]12C(=O)Nc1ccc(I)cc12 experimental_result=1.39

// query Specify reported composite z-score for the compound shown: `COC(=O)[C@@]1(Cc2ccccc2)[C@H]2c3cc(C(=O)N4CCCC4)n(CCN4CNCC4=O)c3C[C@H]2CN1C(=O)c1ccccc1`
// result 1.93
